biological target: α-MSH receptor; assay: Frog melanocyte assay, pigment dispersion (agonist mode) in wild type melanophores; type: cell-based, Xenopus laevis; conditions: wild type melanophores, t=30 min, FIG. 4
pEC50: −log10 of the molar value.
measured parameter: pEC50

1. homodimer: ligand domains SYSMEHFRWGKPV-, spacer GGG-εAhx, K(20), two disulfide-linked cysteines end capped at C-termini with β-alanine [α-MSH dimer]
2. SYSMEHFRWGKPV-GGG-εAhx-K(20)-βAla [α-MSH monomer]
Of the pair 1 and 2 , name the member with the lesser recorded pEC50. Selection: enter the item's label.
2
(2: 6.43, 1: 7.14)

These measurements were taken from patent US6500934B1.
